All figures here come from ChEMBL document CHEMBL3734648.

Tested on: erythrocytes (Homo sapiens)
Assay: Hemolytic activity in human erythrocytes after 30 mins by spectrophotometry
measurement kind: HC50 at 0.5 h (µM)
Report the value in µM with no unit label.

Which measured HC50 at 0.5 h belongs to `Cc1c2c3ccccc3nc-2n(C)c2ccccc12` , tested on erythrocytes (Homo sapiens)?
120
